From: ChEMBL document CHEMBL1201862

IC50 for assorted compounds
Target: Phospholipase A2 (Homo sapiens);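 note: confirmatory dose-response counterscreen on phospholipase A2, testing hits that came from an ultra-high-throughput screen for ATG4B inhibitors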
Sequence (P04054 whole entry): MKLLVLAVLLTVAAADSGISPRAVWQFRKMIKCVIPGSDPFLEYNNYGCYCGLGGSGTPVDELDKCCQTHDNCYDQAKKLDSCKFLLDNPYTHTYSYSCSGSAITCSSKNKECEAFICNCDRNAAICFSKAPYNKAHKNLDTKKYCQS
Type: functional
Active and inactive are the calls of the source.

Recorded IC50, per entry:
[
  {
    "line.notation": "CCCc1ccc(OC(=O)c2cccs2)cc1",
    "IC50": "10.2 µM (active)"
  },
  {
    "line.notation": "O=C(CSc1nc2ccccc2c(=O)n1-c1ccc(Cl)cc1)N/N=C/C=C/c1ccccc1[N+](=O)[O-]",
    "IC50": "1.18 µM (active)"
  },
  {
    "line.notation": "Clc1ccccc1CN1CCN(c2ccccc2Cl)CC1",
    "IC50": "6.52 µM (active)"
  },
  {
    "line.notation": "O=c1cc(O)[nH]c2c1sc1nc(C(F)(F)F)c3c(c12)CCCCC3",
    "IC50": "9.53 µM (active)"
  }
]

Okay, next one:
compound `C=C(C)Cn1c(SCC(=O)N/N=C/c2c(O)ccc3ccccc23)nc2ccccc2c1=O` , IC50 observed: 7.98 µM (active)

###

Target: Cytochrome P450 2D6 (Homo sapiens);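 note: CYP2D6 member of a cytochrome P450 panel assay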
Sequence (P10635 whole entry): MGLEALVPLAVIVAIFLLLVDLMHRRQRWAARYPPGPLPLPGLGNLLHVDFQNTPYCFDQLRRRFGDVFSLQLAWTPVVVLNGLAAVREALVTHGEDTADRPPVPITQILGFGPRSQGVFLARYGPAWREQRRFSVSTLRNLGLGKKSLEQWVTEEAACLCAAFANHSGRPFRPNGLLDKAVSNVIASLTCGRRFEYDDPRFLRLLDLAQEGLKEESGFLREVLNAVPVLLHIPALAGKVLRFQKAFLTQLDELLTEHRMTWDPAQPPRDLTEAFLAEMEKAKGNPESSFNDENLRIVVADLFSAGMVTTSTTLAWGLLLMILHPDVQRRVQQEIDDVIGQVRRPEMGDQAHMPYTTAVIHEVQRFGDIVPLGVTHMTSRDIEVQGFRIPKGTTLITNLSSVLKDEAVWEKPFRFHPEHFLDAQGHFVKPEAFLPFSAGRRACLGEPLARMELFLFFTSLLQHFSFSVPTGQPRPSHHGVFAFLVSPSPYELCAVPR
readout.name: AC50

Sample records with AC50:
[
  {
    "compound": "COC(=O)[C@@]1(Cc2ccccc2)[C@H]2c3cc(C(=O)N4CCCC4)n(Cc4ccsc4Br)c3C[C@H]2CN1C(=O)c1ccccc1",
    "AC50": "12.6 µM (inconclusive)"
  },
  {
    "compound": "COC(=O)[C@@]1(Cc2ccccc2)[C@H]2c3cc(C(=O)N4CCCC4)n(Cc4ccc(O)c(OC)c4)c3C[C@H]2CN1C(=O)c1ccccc1",
    "AC50": "20 µM (inconclusive)"
  },
  {
    "compound": "COc1ccc(C(=O)N2CCC3(CC2)CN(c2ccc(-c4ccccc4)cc2)C3)cc1",
    "AC50": "15.8 µM (inconclusive)"
  }
]

Now let's try a different one.
Record `Cc1c2cc[n+](CCN3CCCCC3)cc2c(C)c2c1[nH]c1ccc(O)cc12` , field AC50: 5.01 µM (inconclusive)

###

Target: Luciferin 4-monooxygenase (Photinus pyralis, UniProt P08659)
Sequence (P08659 whole entry): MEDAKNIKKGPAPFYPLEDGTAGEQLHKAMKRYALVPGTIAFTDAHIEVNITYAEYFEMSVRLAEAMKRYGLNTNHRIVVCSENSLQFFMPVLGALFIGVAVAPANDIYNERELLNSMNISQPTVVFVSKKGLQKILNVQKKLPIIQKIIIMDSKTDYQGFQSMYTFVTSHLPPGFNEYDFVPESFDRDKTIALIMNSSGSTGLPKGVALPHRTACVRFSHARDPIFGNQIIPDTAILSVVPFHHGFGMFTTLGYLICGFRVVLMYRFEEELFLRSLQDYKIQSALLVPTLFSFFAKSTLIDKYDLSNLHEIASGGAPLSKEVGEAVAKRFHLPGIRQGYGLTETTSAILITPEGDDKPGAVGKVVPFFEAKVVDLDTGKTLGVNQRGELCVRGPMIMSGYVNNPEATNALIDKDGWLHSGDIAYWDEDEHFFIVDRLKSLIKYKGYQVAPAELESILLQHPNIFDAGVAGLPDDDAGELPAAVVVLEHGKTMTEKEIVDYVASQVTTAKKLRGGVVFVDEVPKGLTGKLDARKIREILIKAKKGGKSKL
Assay: inhibition of purified Photinus pyralis luciferase – biochemical, luminescence, dose response (AID 1891)
Active and inactive are the calls of the source.
# EC50 per record follows

For orientation, consider the following solved cases.
[
  {
    "molecule": "CCOC(=O)N1CCC(NC(=O)CCc2nc(C3=CCN(C)CC3)no2)CC1",
    "result": "> 112 µM (not active)"
  },
  {
    "molecule": "O=C(COc1ccc(Cl)cc1)Nc1ccc(Cc2ccncc2)cc1",
    "result": "> 112 µM (not active)"
  },
  {
    "molecule": "Cc1ccc(CN(C(=O)c2csnn2)C(C(=O)NC2CCCC2)c2ccc(C)o2)cc1 (stereo not given)",
    "result": "67.6 µM (active)"
  },
  {
    "molecule": "COc1ccc(-c2cc3nc(C)cc(N)n3n2)cc1",
    "result": "0.513 µM (active)"
  },
  {
    "molecule": "COc1cccc(Oc2c(C)oc3c(CN4CCCCC4)c(O)ccc3c2=O)c1",
    "result": "> 112 µM (not active)"
  }
]

Read the next record carefully.
Sure, the documented EC50 for `O=C(Nc1ccc(Cl)cn1)c1ccc(-c2ccc(Cl)c(Cl)c2)o1` is > 112 µM (not active)

###

Target: Replicative DNA helicase DnaB (Mycobacterium tuberculosis, UniProt P9WMR3)
Sequence (P9WMR3 1-399, added parts left off): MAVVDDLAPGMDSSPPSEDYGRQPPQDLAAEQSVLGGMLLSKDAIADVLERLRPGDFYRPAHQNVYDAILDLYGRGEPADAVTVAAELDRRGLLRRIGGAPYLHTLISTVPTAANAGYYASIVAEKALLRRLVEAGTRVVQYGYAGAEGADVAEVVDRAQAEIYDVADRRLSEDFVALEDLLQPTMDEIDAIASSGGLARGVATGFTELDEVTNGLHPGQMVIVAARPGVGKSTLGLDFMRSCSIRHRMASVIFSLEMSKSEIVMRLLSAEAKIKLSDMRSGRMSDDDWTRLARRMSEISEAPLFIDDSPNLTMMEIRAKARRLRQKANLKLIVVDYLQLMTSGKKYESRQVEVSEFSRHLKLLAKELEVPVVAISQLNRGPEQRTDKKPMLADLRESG
Experiment: DnaB intein splicing inhibitors, dose response, biochemical, cell-free fluorescence (AID 449749)
Format: functional
The source made the active and inactive calls.
The reader will find reported AC50 values listed item by item below.

Field: example entries. Status: answers known.
[
  {
    "compound": "CS(=O)(=O)c1nc([N+](=O)[O-])nn1CCCc1ccccc1",
    "AC50": "7.7 µM (active)"
  },
  {
    "compound": "COC(=O)c1cccc(N2C(=O)C(Cl)=C(N3CCOCC3)C2=O)c1",
    "AC50": "4.2 µM (active)"
  },
  {
    "compound": "CC1CCCCC1NC(=O)NC(=O)CCl (stereo unspecified)",
    "AC50": "22.5 µM (active)"
  },
  {
    "compound": "COc1ccc(NC(=O)/C(Cl)=C(/Cl)S(=O)(=O)Cc2ccccc2)cn1",
    "AC50": "2.44 µM (active)"
  },
  {
    "compound": "COC(=O)c1ccccc1NC(=O)C(C)n1nc(C)c2c(C)n(-c3ccccc3)nc2c1=O (stereo unspecified)",
    "AC50": "208 µM (active)"
  },
  {
    "compound": "CCCc1c(-c2ccc(O)cc2)nn(-c2ccc(O)cc2)c1-c1ccc(O)cc1 [PROPYLPYRAZOLETRIOL]",
    "AC50": "2.92 µM (active)"
  },
  {
    "compound": "C/N=C1\\C(=O)c2ccccc2C(O)=C1N(C(C)=O)c1ccc(Br)cc1",
    "AC50": "11.3 µM (active)"
  },
  {
    "compound": "O=C1/C(=C/c2cccc([N+](=O)[O-])c2)CCc2ccccc21",
    "AC50": "8.57 µM (active)"
  },
  {
    "compound": "CCN(CC)c1ccc2c(c1)CCCN2",
    "AC50": "> 120 µM (inactive)"
  },
  {
    "compound": "CC1=NN(Cc2ccccc2)C(=O)C1C(c1ccccc1)C(C#N)C#N (stereo unspecified)",
    "AC50": "3.54 µM (active)"
  }
]

Now let's try a different one.
Entry Cc1n[nH]c2c1C(c1cccs1)C(C#N)=C(N)O2 (stereo unspecified) — recorded AC50 = 24.7 µM (active)

###

Target: Endoribonuclease toxin MazF (Escherichia coli K-12, UniProt P0AE70)
Sequence (P0AE70 whole entry): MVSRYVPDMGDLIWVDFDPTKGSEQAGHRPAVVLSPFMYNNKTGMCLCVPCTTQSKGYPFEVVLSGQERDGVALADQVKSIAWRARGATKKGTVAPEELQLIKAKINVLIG
Test: activation of MazEF endoribonuclease cleavage – biochemical, fluorescence, single-stranded RNA substrate, uHTS hits, dose response (AID 588481)
Type: functional
Activity calls are given as the source filed them.
A correct response names exactly one class from 1 (active), 0 (inactive)

[
  {
    "compound": "COCCN1C(=O)/C(=C/c2ccc(N3CCCC3)cc2)SC1=S",
    "group": 0
  },
  {
    "compound": "CCC(=O)c1cn(CC(=O)Nc2ccccc2Cl)c2ccccc12",
    "group": 0
  },
  {
    "compound": "O=c1oc(/C=C/c2ccc([N+](=O)[O-])s2)nc2ccccc12",
    "group": 0
  }
]

Lookup: Recorded call for Cc1oc(C)c2c(=O)ccc3c(c12)OC(N)=C(C#N)C3c1ccccc1 (configuration not stated) ?
Found: 0

Lookup: // return assay outcome for `O=C1NC(=O)C(=Cc2c[nH]c3ccc(OCc4ccccc4)cc23)C(=O)N1`
Found: 0

Lookup: Which outcome was entered for the compound `C#CCN1C(=O)S/C(=C\c2cc3c(cc2OC)OCO3)C1=O` in this test?
Found: 1

Lookup: I would be grateful if you could indicate the recorded call for `c1cc(Nc2cccc3nccnc23)c2nccnc2c1` .
Found: 0

###

Biological target: Nuclear receptor subfamily 0 group B member 1 (Homo sapiens);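 note: HEK293T cells transfected with SF-1 and DAX-1 plus StAR promoter luciferase reporter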
Sequence (P51843 whole entry): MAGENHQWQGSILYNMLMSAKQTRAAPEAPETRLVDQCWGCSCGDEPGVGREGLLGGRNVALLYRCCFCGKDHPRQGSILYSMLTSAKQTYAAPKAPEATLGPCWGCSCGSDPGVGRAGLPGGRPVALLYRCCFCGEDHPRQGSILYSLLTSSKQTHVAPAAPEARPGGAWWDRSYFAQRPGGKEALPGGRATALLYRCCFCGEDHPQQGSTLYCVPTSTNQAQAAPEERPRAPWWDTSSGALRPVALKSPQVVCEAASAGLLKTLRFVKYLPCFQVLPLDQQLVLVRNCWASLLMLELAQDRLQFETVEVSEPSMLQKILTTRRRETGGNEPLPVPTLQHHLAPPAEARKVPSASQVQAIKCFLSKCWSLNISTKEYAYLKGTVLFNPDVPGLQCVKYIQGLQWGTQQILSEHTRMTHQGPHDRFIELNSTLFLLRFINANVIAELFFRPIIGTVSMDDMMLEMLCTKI
Format: functional, cell-based
Structures can show the parent of a compound that is named as a salt. Calls of active or inactive are those of the source.
Choose one outcome from this list and give only that: active, inactive

Worked examples follow.
[
  {
    "molecule": "CC[C@]1(O)C[C@@H]2CN(CCc3c([nH]c4ccccc34)[C@@](C(=O)OC)(c3cc4c(cc3OC)N(C)[C@H]3[C@@](O)(C(=O)OC)[C@H](OC(C)=O)[C@]5(CC)C=CCN6CC[C@]43[C@@H]65)C2)C1 [VINBLASTINE SULFATE]",
    "group": "inactive"
  },
  {
    "molecule": "COc1ccc(-c2cnc3c(NC=O)cc(-c4ccccc4OC)cn23)cc1OC",
    "group": "inactive"
  },
  {
    "molecule": "O=C(CCCCCCC(=O)Nc1ccccc1)NO",
    "group": "active"
  }
]

Turning to the following molecule.
Lookup: Write down the call the test reported for this molecule. Item: `C(=Cc1c[nH]c2ccccc12)c1ccc2ccccc2n1`
Found: inactive
